Protocol details: CaMKII Cell-Based Activity: CaMKII activity in neonatal rat ventricular myocytes (NRVM) was measured by monitoring the phosphorylation level of phospholamban using high-content imaging. NRVMs were plated in a clear bottom 384-well plate in medium supplemented with 10% fetal bovine serum (FBS) and incubated at 37° C., 5% CO2 overnight. The medium was changed to a serum-free medium and compounds were dosed to the cells. The cells were incubated at 37° C., 5% CO2 for 4 hours and were then treated with 100 nM ATX-II (Alomone Labs) to activate CaMKII. 10 minutes after the addition of ATX-II, the cells were fixed with 4% formaldehyde followed by permeabilization with 0.1% triton X100. The fixed cells were stained with an anti-phospho-phospholamban primary antibody (Santa Cruz Biotechnology) and an Alexa488-labeled anti-rabbit IgG secondary antibody (Life Technologies Corporation) as well as Hoechst 33342 (Life Technologies Corporation). The cells were imaged using an ArrayScan VTI (Cellomics) and analyzed for cells containing a positive fluorescent signal at 485 nm, reported as % responder. The % responders were plotted against the compound concentration to determine the compounds EC50.
pEC50: −log10 of the molar value.
Readout: pEC50

Below, each entry is followed by its recorded pEC50 result.
| Compound | pEC50 |
| --- | --- |
| CCOC(=O)Nc1cc(C(=O)NC[C@H](C)N(CC)CC)cc(-c2cnn3ccc(-c4cccs4)nc23)n1 | 6.84 |
| O=C(c1ccnc(-c2cnn3ccc(-c4cccs4)nc23)c1)N1CCC[C@@H]2CCNC[C@@H]21 | 7.09 |

1: CCCC(CNC(=O)c1ccnc(-c2cnn3ccc(-c4ccccc4)nc23)c1)N(CC)CC (stereo not given)
2: C[C@@H](NC(=O)c1ccnc(-c2cnn3ccc(-c4cccs4)nc23)c1)[C@@H]1CCCN1
3: CCN(CC)[C@@H](C)CNC(=O)c1cc(-c2cnn3ccc(-c4ccns4)nc23)nc(N2CC(OC)C2)c1
Sort by pEC50, descending. // ordering of labels required in reply
3, 1, 2
